Tested on: Enterobacter cloacae
Test: MIC against Gram-negative bacteria: Enterobacter cloacae
Format: cell-based
Conditions Used: Enterobacter cloacae; 96-well plate, 5×10^5 CFU/mL, 37° C., 10 h
Value Kind: MIC against E. cloacae

Substance | Observed Result
PRT1207 (DIDECSDGFVQCDSRANCINLPGWYHCECRDGYHDNGMFSPSGESCE; listed as Homo sapiens) | 25 µg/mL
PRT1202 (GYDFCSERHNCMENSICRNLNDRAVCSCRDGFRALREDNAYCE; listed as Homo sapiens) | 12.5 µg/mL
PRT1305 (SANACSAFKCHHGQCHISDQGEPYCLCQPGFSGEHCQ; listed as Homo sapiens) | 12.5 µg/mL

stdin: I'd like to know its MIC against E. cloacae. The substance in question is PRT1303 (HGLCRSVEKDSVVCECRPGWTGPLCD; listed as Homo sapiens)
stdout: 12.5 µg/mL

stdin: Entry under review: PRT1219 (DHDSCVHGPCQNGGSCLRRLAVSSVLKSRESLPVIIVANEPLQPFLCKCLPGYAGSWCE; listed as Homo sapiens) . Reported MIC against E. cloacae?
stdout: 50 µg/mL

stdin: Please report the recorded MIC against E. cloacae for PRT1300 (VIDHCVPELNLCQHEAKCIPLDKGFSCECVPGYSGKLCE; listed as Homo sapiens) .
stdout: 25 µg/mL

stdin: Would you mind telling me what MIC against E. cloacae value was observed for PRT1217 (EITACFPNPCRNGGSCDPIGNTFICNCKAGLTGVTCE; listed as Homo sapiens) ?
stdout: 25 µg/mL

----------
Below, each of the substances is paired with its reported MIC against K. pneumonia value.
Test system: Klebsiella pneumonia
Test: MIC against Gram-negative bacteria: Klebsiella pneumonia
Assay type: cell-based
Conditions Used: 96-well plate, 5×10^5 CFU/mL, 37° C., 10 h
# value in mg/L; strip the unit string

Sample answers from the record:
Substance | Value Kind | Observed Result
PRT591 (CACDPHNSLSPQCNQFTGQCPCREGFGGLMCSAAAIRQCPDRTYGDVATGCRA; listed as Homo sapiens) | MIC against K. pneumonia | 12.5
PRT513 (CECDPYGSLPVPCDPVTGFCTCRPGATGRKCDGCKHWHAREGWECVF; listed as Homo sapiens) | MIC against K. pneumonia | 12.5
PRT449 (FLCRCHQGYELHRDGFSCSDIDE; listed as Homo sapiens) | MIC against K. pneumonia | 12.5

Consider now this further substance.
stdin: Which MIC against K. pneumonia is listed for PRT450 (KCLCPLGFLLANDSKTCEDIDE; listed as Homo sapiens) ?
stdout: 50

----------
Here the recorded MIC against A. hydrophila is given for each entry.
Tested on: Aeromonas hydrophila
Test: MIC against Gram-negative bacteria: Aeromonas hydrophila
Format: cell-based
Conditions Used: 96-well plate, 5×10^5 CFU/mL, 37° C., 10 h
Could you give me the number in µg/mL? Just the number is fine.

Worked set:
Substance | Value Kind | Observed Result
PRT524 (CNCSRRGTIEAAMPECDRDSGQCRCKPRITGRQCDRCASGFYRFPECVP; listed as Homo sapiens) | MIC against A. hydrophila | 25
PRT465 (ALDPCASGPCLNGGSCSNTQDPQSYHCSCPRAFTGKDCG; listed as Homo sapiens) | MIC against A. hydrophila | 12.5
PRT548 (CPCPLSVPSNNFAEGCVLRGGRTQCLCKPGYAGASCERCAPGFFGNPLVLGSSCQP; listed as Homo sapiens) | MIC against A. hydrophila | 25
PRT573 (CPCPDGPDSGRQFARSCYQDPVTLQLACVCDPGYIGSRCDDCASGYFGNPSEVGGSCQP; listed as Homo sapiens) | MIC against A. hydrophila | 12.5
PRT586 (CPCPEGPGSQRHFATSCHQDEYSQQIVCHCRAGYTGLRCEACAPGHFGDPSRPGGRCQL; listed as Homo sapiens) | MIC against A. hydrophila | 50

stdin: State the recorded MIC against A. hydrophila for this entry: PRT534 (CKCHKAGTVSGTGECRQGDGDCHCKSHVGGDSCDTCEDGYFALEKSNYFGCQG; listed as Homo sapiens)
stdout: 12.5

stdin: # query: MIC against A. hydrophila of entry PRT497 (CACPHSPPASFSPTCVLEGDHDFRCDACLLGYEGKHCERCSSSYYGNPQTPGGSCQK; listed as Homo sapiens)
stdout: 50
